src = ChEMBL document CHEMBL1123352

Experiment: Compound for toxicity by rotarod assay method in mice after administration
Assay type: organism-based
Conditions: mouse, in vivo
Assign TD50 to each entry below.
One number for each entry, in mg/kg.

| smiles-data | unit-name | TD50 |
| --- | --- | --- |
| Cc1ccccc1NC(=O)c1cccc(N)c1 | mg/kg | 109 |

Field: next compound
Entry Cc1cccc(C)c1NC(=O)c1cccc(N)c1 , TD50 reported as 285
